- target of assay: Ec FimHLD
- assay: ELISA
recorded endpoint: EC50 (µg/mL)

1) Ec A2 (antibody, V domains shown) VH: EVQLQQSGAEQVRPGASVKMSCKASGYTFTTYNMNWMKQTPGQGLEWIGVIYPGNGDISYNQKFKGKATLTVDKSSSTAYMQLSSLTSEDSAVYFCAREGDYGPWFAYWGQGTLVTVSA VL: QIVLTQSPAIMSASPGEKVTMTCRASSSVSSSYLHWYQQKSGASPKFWIYSTSKLASGVPARFSGSGSGTSYSLTISSVEAEDAATYYCQHYSRYPLTFGGGTKLEIKR; 0.0131
2) Ec H9 (antibody, V domains shown) VH: EVQLQQSGPVLVKPGPSVKISCKASGFTFTDYFVHWVKQSHGKSLEWIGLVSPYNGGTYYNQQFKGKATLTVDTSSSTAYMDLNSLTSEDSAVYYCARLLRGYWYFDVWGTGTTVTVSS VL: QIVLTQSPALMAASPGEKVTITCSVSSSISSSTLHWYQQKSETSPKPWIYGTSNLASGVPVRFGGSGSGTSYSLTISSMEAEDAATYYCQQWSTYPYTFGGGTKLEIKR; 0.0301
3) Kp 1B02 (antibody, V domains shown) VH: EVQLQQSGAELVRPGSSVKMSCKTSGYTFTFYGINWVKQRPGQGLEWIGYIYVGNGYSEYNEKFKVKATLTSDTSSSTAYMQLSGLTSEDSAIYFCARSDGYNYFDYWGQGTTLTVSS VL: QIVLTQSPAILSASPGEKVTMTCRASSSLHYMHWYQQKTGSSPKPWIYATSNLASGVPARFSGSGSGTSYSLTISRVEAEDTATYYCQQWSSNPPTFGAGTKLELKR; 0.024

Cited source for all entries: patent US20250304662A1
